System: LOXL2
ASSAY DETAILS: LOXL2 enzymatic activity across all mammalian species tested
Format: biochemical
pIC50: −log10 of the molar value.
PROPERTY MEASURED: pIC50

COMPOUND	RESULT
Cc1c(-c2cccc(S(=O)(=O)N(C)C)c2)c2ncccc2n1C/C(F)=C/CN.Cl.Cl [PXS-5153A]	> 7.40

* * *

EXPERIMENTAL TARGET: Native human LOX (Homo sapiens, UniProt P28300)
Sequence (P28300 169-417): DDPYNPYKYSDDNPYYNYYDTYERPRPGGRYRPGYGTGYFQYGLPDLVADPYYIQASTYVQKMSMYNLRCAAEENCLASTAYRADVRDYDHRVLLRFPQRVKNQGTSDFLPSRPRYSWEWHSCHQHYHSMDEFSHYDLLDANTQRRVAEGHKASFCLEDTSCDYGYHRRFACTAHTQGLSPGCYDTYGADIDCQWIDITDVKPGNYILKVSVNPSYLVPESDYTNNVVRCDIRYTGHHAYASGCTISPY
pIC50: −log10 of the molar value.
PROPERTY MEASURED: pIC50

COMPOUND	PROPERTY MEASURED	RECORDED NUMBER
Cc1c(-c2cccc(S(=O)(=O)N(C)C)c2)c2ncccc2n1C/C(F)=C/CN.Cl.Cl [PXS-5153A]	pIC50	5.75
